Tested on: cultured murine cortical neurons
ASSAY_TEXT: Protection of Cultured Cortical Neurons from Excitotoxic Injury Induced by NMDA (NE Assay)
Format: cell-based, mice
CONDITION_DESCRIPTION: NMDA 62.5 μM, LDH release 24 hours after starting the exposure
VALUE_KIND: neuroprotection (cell viability by LDH release)

Examples with their reported neuroprotection (cell viability by LDH release) follow.
compound="CC(=O)Nc1cccc(-c2cc(N(C)C)c3c(c2O)C(=O)C2=C(O)[C@]4(O)C(=O)C(C(N)=O)=C(O)[C@@H](N(C)C)[C@@H]4C[C@@H]2C3)c1 [G]" result="good neuroprotection"
compound="CN(C)[C@@H]1C(O)=C(C(N)=O)C(=O)[C@@]2(O)C(O)=C3C(=O)c4c(O)ccc(/C=C/C(=O)NC(C)(C)C)c4C[C@H]3C[C@@H]12 [CW]" result="good neuroprotection"
compound="CN(C)[C@H]1C(O)=C(C(N)=O)C(=O)[C@@]2(O)C(O)=C3C(=O)c4c(O)c(CN)cc(-c5ccccc5)c4C[C@H]3C[C@@H]12 [JC]" result="good neuroprotection"
compound="CCCCOc1ccc(N(C)C)c2c1C(=O)C1=C(O)[C@]3(O)C(=O)C(C(N)=O)=C(O)[C@@H](N(C)C)[C@@H]3C[C@@H]1C2 [OM]" result="good neuroprotection"
compound="CN(C)Cc1ccc(O)c2c1C[C@H]1C[C@H]3[C@@H](N(C)C)C(O)=C(C(N)=O)C(=O)[C@@]3(O)C(O)=C1C2=O [KF]" result="good neuroprotection"

If you can, please state the reported neuroprotection (cell viability by LDH release) value of CCC(=O)O[C@H]1[C@H]2C(=C(O)[C@]3(O)C(=O)C(C(N)=O)=C(O)[C@@H](N(C)C)[C@H]13)C(=O)c1c(O)cccc1[C@@H]2C [M] .
good neuroprotection

If you can, please state the reported neuroprotection (cell viability by LDH release) value of CCC(=O)O[C@H]1[C@H]2C(=C(O)[C@]3(O)C(=O)C(C(N)=O)=C(O)[C@@H](N(C)C)[C@H]13)C(=O)c1c(ccc(NC(=O)Nc3cccc4ccccc34)c1O)[C@@H]2C [Q] .
good neuroprotection

If you can, please state the reported neuroprotection (cell viability by LDH release) value of CN(C)c1cc(NC(=O)Nc2ccc([N+](=O)[O-])cc2)c(O)c2c1C[C@H]1C[C@H]3[C@@H](N(C)C)C(O)=C(C(N)=O)C(=O)[C@@]3(O)C(O)=C1C2=O [CD] .
good neuroprotection

* * *

Test system: S. aureus RN450
ASSAY_TEXT: In Vitro Anti-Bacterial Activity Assay (MIC), gram positive
Format: cell-based
CONDITION_DESCRIPTION: Staphylococcus aureus, RN450, 18 h, gram positive bacteria; read-out: Antibiotic Activity Gram + (MIC)
Entries annotated with measured MIC

Examples with their reported MIC follow.
molecule=C[C@H]1c2ccc(N)c(O)c2C(=O)C2=C(O)[C@]3(O)C(=O)C(C(N)=O)=C(O)[C@@H](N(C)C)[C@@H]3[C@@H](O)[C@@H]21 result="> 4 µg/mL"
molecule=C#Cc1cc(CNC(=O)N2CCOCC2)c2c(c1O)C(=O)C1=C(O)[C@]3(O)C(=O)C(C(N)=O)=C(O)[C@@H](N(C)C)[C@@H]3C[C@@H]1C2 result="> 4 µg/mL"
molecule=CN(C)c1ccc(-c2cc(C(C)(C)C)c(O)c3c2C[C@H]2C[C@H]4[C@H](N(C)C)C(O)=C(C(N)=O)C(=O)[C@@]4(O)C(O)=C2C3=O)cc1 result="> 4 µg/mL"
molecule=CN(C)c1cc2c(c3c1C[C@H]1C[C@H]4[C@H](N(C)C)C(O)=C(C(N)=O)C(=O)[C@@]4(O)C(O)=C1C3=O)OC(=O)N(CC(C)(C)C)C2 result="> 4 µg/mL"
molecule=C[C@H]1c2ccc(-c3ccc(N(C)C)cc3)c(O)c2C(=O)C2=C(O)[C@]3(O)C(=O)C(C(N)=O)=C(O)[C@@H](N(C)C)[C@@H]3[C@@H](O)[C@@H]21 result="< 4 µg/mL"

If you can, please state the reported MIC value of CN(C)[C@@H]1C(O)=C(C(N)=O)C(=O)[C@@]2(O)C(O)=C3C(=O)c4c(O)ccc(C#CCCC#Cc5ccc(O)c6c5C[C@@]5(C)C[C@@]7(C)[C@H](N(C)C)C(O)C(C(N)=O)C(=O)[C@@]7(O)C(O)=C5C6=O)c4C[C@@]3(C)C[C@@]12C (stereo partly drawn) .
> 4 µg/mL

If you can, please state the reported MIC value of `CN(C)[C@@H]1C(O)=C(C(N)=O)C(=O)[C@@]2(O)C(O)=C3C(=O)c4c(O)ccc(Cl)c4C=C3C[C@@H]12` .
< 4 µg/mL

If you can, please state the reported MIC value of `COCc1cccc(-c2ccc(O)c3c2C[C@H]2C[C@H]4[C@H](N(C)C)C(O)=C(C(N)=O)C(=O)[C@@]4(O)C(O)=C2C3=O)c1` .
< 4 µg/mL

If you can, please state the reported MIC value of `CN(C)c1cc(CNCC2CCNCC2)c(O)c2c1C[C@H]1C[C@H]3[C@H](N(C)C)C(O)=C(C(N)=O)C(=O)[C@@]3(O)C(O)=C1C2=O` .
> 4 µg/mL

If you can, please state the reported MIC value of `CN(C)c1cc(CNC(=O)C2(N)CC2)c(O)c2c1C[C@H]1C[C@H]3[C@H](N(C)C)C(O)=C(C(N)=O)C(=O)[C@@]3(O)C(O)=C1C2=O` .
< 4 µg/mL

If you can, please state the reported MIC value of COC1C(C(N)=O)=C(O)[C@@H](N(C)C)[C@@H]2[C@@H](O)[C@H]3C(=C(O)[C@]12O)C(=O)c1c(O)cccc1[C@@H]3C (stereo partly drawn) .
> 4 µg/mL

If you can, please state the reported MIC value of `CCNCC(=O)NCc1cc(N(C)C)c2c(c1O)C(=O)C1=C(O)[C@]3(O)C(=O)C(C(N)=O)=C(O)[C@@H](N(C)C)[C@@H]3C[C@@H]1C2` .
> 4 µg/mL

Source listed as patent US20150141381A1.
